# target-or-system: biotinylated recombinant human CLL-1 extracellular domain protein, isoform with lysine at amino acid position 244 (human) (UniProt Q5QGZ9)
# Sequence (Q5QGZ9 65-265): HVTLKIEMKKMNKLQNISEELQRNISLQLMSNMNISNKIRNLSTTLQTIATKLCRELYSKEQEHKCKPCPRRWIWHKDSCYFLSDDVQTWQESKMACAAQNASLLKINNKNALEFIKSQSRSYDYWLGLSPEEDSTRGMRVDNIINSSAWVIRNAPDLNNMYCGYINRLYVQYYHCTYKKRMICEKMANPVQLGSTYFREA
# assay-comment: Exp 1 (= Octet, CLL-1-K244 of FIG. 12B)
measured-property: Kd (nM)
// note: answer is a bare numeric in nM

Anti-CLL-1 Binder Clone 6 (scFv, not shown: small tags and cut ends) scFv: QSVLTQPPSVSAAPGQKVSIFCSGGSSNIGKNYVSWYQQLPGTAPKLLIYENQHRPSGIPDRFSGSKSGTSATLGITGLQTGDEADYYCATWDDSLSAGVFGGGTELTVLGGGGSGGGGSGGGGSQLVQSGAEVRKPGESLKISCKGSGYSFTSYWIGWVRQMPGKGLEWMGFIYPGDSDTRYSPSFQGQVTISADKSISTAYLQRSSLKASDTAMYYCARLGGYSGYDSEVFYLDYWGQGTTVTVSS; 5.08

// next entry
Query string: Consider the binder Anti-CLL-1 Binder Clone 20 (VHH, not shown: small tags and cut ends) VHH: QVQLVQSGGGLVQPGGSLRLSCAASDFSFSYYEMSWVRQAPGKGLEWVSTISGSGDSTYYADSVKGRFTISRDNTKNTLYLQMNTLRAEDTATYYCMTDGETWGTHRYTVYWGQGALVTVSS and give its recorded Kd.
Result string: 5.68
